biological target: δ-opioid receptor (Mus musculus); construct: from tissue; host or cells: vas deferens of male ddy mice; experiment: δ-opioid antagonist activity against DPDPE in mouse vas deferens (MVD); settings: DPDPE IC50 with/without 100 nM test compound, 20 min
Sequence (P32300 whole entry): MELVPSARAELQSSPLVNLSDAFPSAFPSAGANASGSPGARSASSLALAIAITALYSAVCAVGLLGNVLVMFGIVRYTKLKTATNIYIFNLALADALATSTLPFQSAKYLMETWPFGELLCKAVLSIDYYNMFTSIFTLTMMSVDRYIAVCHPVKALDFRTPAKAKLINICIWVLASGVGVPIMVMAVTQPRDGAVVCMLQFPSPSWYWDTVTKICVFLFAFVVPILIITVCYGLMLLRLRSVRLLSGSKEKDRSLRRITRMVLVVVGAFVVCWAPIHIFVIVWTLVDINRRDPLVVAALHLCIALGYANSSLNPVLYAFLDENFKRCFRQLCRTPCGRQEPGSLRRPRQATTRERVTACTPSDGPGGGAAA
measure: Ratio of IC50 Values
Please respond with just the number, no unit label.

{"compound": "O=C(NCC1CC1)c1ccc2[nH]c3c(c2c1)C[C@@]1(O)[C@H]2Cc4ccc(O)c5c4[C@@]1(CCN2CC1CC1)[C@H]3O5 [Compound 7]", "Ratio of IC50 Values": 33.2}
{"compound": "N#Cc1ccc2c3c([nH]c2c1)[C@@H]1Oc2c(O)ccc4c2[C@@]12CCN(CC1CC1)[C@H](C4)[C@]2(O)C3 [Compound 53]", "Ratio of IC50 Values": 62.3}

-- ask Name the recorded Ratio of IC50 Values for CCOC(=O)Cc1ccc2c3c([nH]c2c1)[C@@H]1Oc2c(O)ccc4c2[C@@]12CCN(CC1CC1)[C@H](C4)[C@]2(O)C3 [Compound 49] .
-- reply 27.8

Value source: patent US6291470A
